Data origin: the supplement of paper PMC8024199

tested on: Ba/F3 P210-BCR-ABL1 RUNX1-/mut (mouse); test: drug sensitivity score (DSS) (DSS score); higher = more sensitive (stronger growth inhibition); extreme values may be limits of the assay
List of drug sensitivity score values.
API note: the answer field is a bare number with no unit suffix.

Consider the worked cases shown below.
>>> experimental_result("CC(=O)c1cnc2ccc(-c3cc(Cl)c(O)c(Cl)c3)nc2c1N[C@H]1CC[C@H](CN(C)C)CC1")
20.4
>>> experimental_result("Cn1ncc(Cl)c1-c1cc(C(=O)N[C@H](CN)Cc2ccc(F)c(F)c2)oc1Cl")
0

Tell me the measured drug sensitivity score of CN1C(=O)N[C@H](Cc2c[nH]c3c(Cl)cccc23)C1=O , please.
0

Tell me the measured drug sensitivity score of CC(=O)[C@]1(O)Cc2c(O)c3c(c(O)c2[C@@H](O[C@H]2C[C@H](N)[C@H](O)[C@H](C)O2)C1)C(=O)c1ccccc1C3=O , please.
24.8

----------
tested on: Ba/F3 P210-BCR-ABL1 RUNX1wt/wt control (mouse); test: drug sensitivity score (DSS) (DSS score); higher = more sensitive (stronger growth inhibition); extreme values may be limits of the assay
Grouping key: drug sensitivity score. Bins: low end = under 5, middle = from 5 up to 10, high end = 10 and over

Worked set:
>>> label_class("O=C(Nc1ccc(OC(F)(F)Cl)cc1)c1cnc(N2CC[C@@H](O)C2)c(-c2cc[nH]n2)c1")
"high end"
>>> label_class("COc1ccc(CCc2nc3cc(-c4c(C)noc4C)ccc3n2C[C@H](C)N2CCOCC2)cc1Cl")
"middle"
>>> label_class("CN(C)c1cc2c(cc1Sc1nc3c(N)nccc3n1CCNCC(C)(C)C)OCO2")
"high end"
>>> label_class("CCCCCCCCc1ccc(CCC(N)(CO)CO)cc1")
"middle"
>>> label_class("Nc1ccccc1NC(=O)c1ccc(CNC(=O)OCc2cccnc2)cc1")
"middle"
>>> label_class("O=C(Nc1c[nH]nc1-c1nc2ccc(CN3CCOCC3)cc2[nH]1)NC1CC1")
"low end"
>>> label_class("CN(C)Cc1ccc(S(=O)(=O)n2ccc(/C=C/C(=O)NO)c2)cc1")
"high end"

Now look at this entry.
Given COc1cc2nccc(Oc3ccc(NC(=O)C4(C(=O)Nc5ccc(F)cc5)CC4)cc3)c2cc1OC [Cabozantinib] , name the class its drug sensitivity score places it in.
low end

----------
tested on: Ba/F3 P210-BCR-ABL1 RUNX1wt/wt control (mouse); assay: drug sensitivity score (DSS) (DSS score); higher = more sensitive (stronger growth inhibition); extreme values may be limits of the assay
Respond with 1.0 for drug sensitivity score values of 0.2 and above, 0.0 for values below.

Worked set:
>>> label_class("C[C@@H]1C[C@H]2[C@@H]3CCC4=CC(=O)C=C[C@]4(C)[C@@]3(F)[C@@H](O)C[C@]2(C)[C@@]1(O)C(=O)CO")
0.0
>>> label_class("O=C(Nc1cccnc1)N1CCC(Cc2cccc(Oc3ccc(C(F)(F)F)cn3)c2)CC1")
1.0

Reported drug sensitivity score at or above 0.2? O=C1Cc2cc(C(=O)NC3C[C@H]4CC[C@@H](C3)N4S(=O)(=O)CC3CCN(CCCC(F)(F)F)CC3)c(Cl)cc2N1 (some centres not stated)
1.0

Reported drug sensitivity score at or above 0.2? c1cc(CN2CCCNCCNCCCNCC2)ccc1CN1CCCNCCNCCCNCC1
0.0

Reported drug sensitivity score at or above 0.2? CC(=O)O[C@@]12CO[C@@H]1C[C@H](O)[C@@]1(C)C(=O)[C@H](O)C3=C(C)[C@@H](OC(=O)[C@H](O)[C@@H](NC(=O)OC(C)(C)C)c4ccccc4)C[C@@](O)([C@@H](OC(=O)c4ccccc4)[C@H]21)C3(C)C
1.0

Reported drug sensitivity score at or above 0.2? CC(C)Oc1ccc(-c2nn([C@@H](C)c3oc4ccc(F)cc4c(=O)c3-c3cccc(F)c3)c3ncnc(N)c23)cc1F
0.0

----------
List of drug sensitivity score values.
system: Ba/F3 P210-BCR-ABL1 RUNX1-/mut (mouse); experiment: drug sensitivity score (DSS) (DSS score); higher = more sensitive (stronger growth inhibition); extreme values may be limits of the assay
API note: the answer field is a bare number with no unit suffix.

Consider the worked cases shown below.
>>> experimental_result("CCCCNc1ncc(C(=O)NCc2ccc(-n3ccnc3)cc2)c(NC2CCC(O)CC2)n1 (stereo unspecified) [UNC2881]")
0
>>> experimental_result("Cc1nc(C(=O)NCC(=O)O)c(O)c2ccc(Oc3ccccc3)cc12 [Roxadustat]")
0.95
>>> experimental_result("Nc1nccc(-c2c(-c3ccc(F)cc3)ncn2C2CCCCC2)n1")
0

Tell me the measured drug sensitivity score of CN1CCC(COc2cnc(-c3cccc(Cn4nc(-c5cccc(C#N)c5)ccc4=O)c3)nc2)CC1 [Tepotinib] , please.
2.5

Tell me the measured drug sensitivity score of C#Cc1cccc(Nc2ncnc3cc4c(cc23)OCCOCCOCCO4)c1 [Icotinib] , please.
0

Tell me the measured drug sensitivity score of CS(=O)(=O)CCNCc1ccc(-c2ccc3ncnc(Nc4ccc(OCc5cccc(F)c5)c(Cl)c4)c3c2)o1 [Lapatinib] , please.
0.3

Tell me the measured drug sensitivity score of Oc1ccc2c(c1)CC[C@H](c1ccccc1)[C@@H]2c1ccc(OCCN2CCCC2)cc1 [Lasofoxifene] , please.
0.65

Tell me the measured drug sensitivity score of COc1cc2/c(=N/c3ccc(Br)cc3F)nc[nH]c2cc1OCC1CCN(C)CC1 [Vandetanib] , please.
0

Tell me the measured drug sensitivity score of COC(=O)c1ccc2c(c1)NC(=O)/C2=C(\Nc1ccc(N(C)C(=O)CN2CCN(C)CC2)cc1)c1ccccc1 [Nintedanib] , please.
8.15

Tell me the measured drug sensitivity score of CC(=O)Nc1ccc(C(=O)Nc2ccccc2N)cc1 [Tacedinaline] , please.
0

Tell me the measured drug sensitivity score of O=C(CCNC(=O)c1ccc(OC(F)(F)F)cc1)N[C@@H]1CCCc2ccccc21 [ML390] , please.
19.6

Tell me the measured drug sensitivity score of CCCc1cc(C)[nH]c(=O)c1CNC(=O)c1cc(-c2ccnc(N3CCN(C)CC3)c2)cc2c1cnn2C(C)C [GSK343] , please.
1.05

Tell me the measured drug sensitivity score of CN(CC(=O)N(Cc1ccc(C2CCCCC2)cc1)c1ccc(C(=O)O)cc1)S(=O)(=O)c1c(F)c(F)c(F)c(F)c1F [SH-4-54] , please.
8.35

Tell me the measured drug sensitivity score of O=C(Nc1cc(Oc2cc(F)c(NC(=O)C3(C(=O)Nc4ccc(F)cc4)CC3)cc2F)ccn1)C1CC1 [Altiratinib] , please.
6.8

Tell me the measured drug sensitivity score of COc1cc2c(cc1OC(C)C)[C@H](c1ccc(Cl)cc1)N(c1ccc(N(C)C[C@H]3CC[C@H](N4CCN(C)C(=O)C4)CC3)cc1)C(=O)C2 [NVP-CGM097] , please.
8.8

Tell me the measured drug sensitivity score of COc1ncc(-c2ccc3nccc(-c4ccnnc4)c3c2)cc1NS(=O)(=O)c1ccc(F)cc1F [Omipalisib] , please.
11.9

Tell me the measured drug sensitivity score of CC/C(=C(\c1ccc(O)cc1)c1ccc(OCCN(C)C)cc1)c1ccccc1 [4-hydroxytamoxifen] , please.
8.3

Tell me the measured drug sensitivity score of NC(=O)NO [Hydroxyurea] , please.
11.9

Tell me the measured drug sensitivity score of Nc1ncn([C@@H]2O[C@H](CO)[C@@H](O)[C@H]2O)c(=O)n1 [Azacitidine] , please.
7.3

Tell me the measured drug sensitivity score of CC(C)Cn1cnc2c(N)nc3ccccc3c21 [Imiquimod] , please.
5.6

Tell me the measured drug sensitivity score of CCc1c2c(nc3ccc(O)cc13)-c1cc3c(c(=O)n1C2)COC(=O)[C@]3(O)CC [SN-38] , please.
29.1

Tell me the measured drug sensitivity score of CO[C@@]12[C@H](COC(N)=O)C3=C(C(=O)C(C)=C(N)C3=O)N1C[C@@H]1N[C@@H]12 [Mitomycin C] , please.
4.9

----------
List of drug sensitivity score values.
tested on: Mye-BP RUNX1 p.R162K; test: drug sensitivity score (DSS) (DSS score); higher = more sensitive (stronger growth inhibition); extreme values may be limits of the assay
API note: the answer field is a bare number with no unit suffix.

Consider the worked cases shown below.
>>> experimental_result("CS(=O)(=O)OCCCCOS(C)(=O)=O")
1.94
>>> experimental_result("CC1=C(/C=C/C(C)=C/C=C/C(C)=C/C(=O)O)C(C)(C)CCC1")
19.3
>>> experimental_result("C[C@@H](C(=O)O)c1ccc(-c2ccccc2)c(F)c1")
0

Tell me the measured drug sensitivity score of C[C@@H]1C[C@H]2[C@@H]3CCC4=CC(=O)C=C[C@]4(C)[C@@]3(F)[C@@H](O)C[C@]2(C)[C@@]1(O)C(=O)CO , please.
6.24

Tell me the measured drug sensitivity score of COc1cc(OC2CCN(C)CC2)ccc1Nc1ncc2c(n1)n(C1CCCC1)c(=O)n2C , please.
4.62

Tell me the measured drug sensitivity score of CC(C)C[C@H](NC(=O)[C@H](Cc1ccccc1)NC(=O)c1cnccn1)B(O)O , please.
29.6

Tell me the measured drug sensitivity score of Nc1ncn([C@H]2C[C@H](O)[C@@H](CO)O2)c(=O)n1 , please.
10.9

Tell me the measured drug sensitivity score of C=CC[C@@H]1/C=C(\C)C[C@H](C)C[C@H](OC)[C@H]2O[C@@](O)(C(=O)C(=O)N3CCCC[C@H]3C(=O)O[C@H](/C(C)=C/[C@@H]3CC[C@@H](O)[C@H](OC)C3)[C@H](C)[C@@H](O)CC1=O)[C@H](C)C[C@@H]2OC , please.
0

Tell me the measured drug sensitivity score of COc1cc([C@@H]2c3cc4c(cc3[C@@H](O[C@@H]3O[C@@H]5CO[C@@H](c6cccs6)O[C@H]5[C@H](O)[C@H]3O)[C@H]3COC(=O)[C@H]23)OCO4)cc(OC)c1O [Teniposide] , please.
25.9

Tell me the measured drug sensitivity score of CN[C@@H]1C[C@H]2O[C@@](C)([C@@H]1OC)n1c3ccccc3c3c4c(c5c6ccccc6n2c5c31)C(=O)N[C@H]4O , please.
17.3

Tell me the measured drug sensitivity score of CC(C)(C)NC(=O)[C@H]1CC[C@H]2[C@@H]3CC[C@H]4NC(=O)C=C[C@]4(C)[C@H]3CC[C@]12C [Finasteride] , please.
0.162
